# ASSAYED_SYSTEM: Alpha-2C adrenergic receptor (Homo sapiens)
# PROTOCOL_DESCRIPTION: compounds altering alpha2C-coupled GIRK flux – cell-based, HEK293 alpha2C/GIRK1/2, thallium flux, primary screen (AID 624);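 further: slope of fluorescence ratio to pre-addition baseline per second over 15 to 24 s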
# CONDITION_DETAILS: thallium flux BTC fluorescence, at 10 µM, actives lie on both sides
Catalogue of slope values
// no unit string in output, number only

O=C(OCC#CCSc1nc2ccccc2s1)c1ccco1; 0.00607
O=C(NCc1cccnc1)C1c2ccccc2C(=O)N1Cc1ccco1 (stereo unspecified); 0.00603
Cc1cc(C)cc(-n2nnc(C(=O)NCc3ccco3)c2N)c1; 0.00643
CC(C)(C)n1nnnc1CN1CCC(NC(=O)NC2CCCCC2)CC1; 0.00372
O=C(COC(=O)CCC1CCCC1)Nc1ccc(Cl)cn1; 0.00786

Please turn your attention to the following entry.
Task item: For the compound `Cn1c(C(=O)NCCCN2CCCCCC2)cc2c(=O)n(C)c3ccccc3c21` , give its measured slope value.
Reply: 0.00675

---

# PROTOCOL_DESCRIPTION: endothelial E-selectin expression blockers – imaging, HUVEC, immunofluorescence, MLSMR starter and 10KST1 sets, primary screen (AID 487);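 further: 100% = median nuclei count of all wells on the same plate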
# CONDITION_DETAILS: HUVEC TNFalpha-induced E-selectin immunofluorescence imaging, at 2 µM; measured here: cell number, toxicity
ENDPOINT_NAME: nuclei count (%)
Number only, in %; omit the unit.

Check out these entries, answers already filled in.
CC(=O)Nc1ccc(S(=O)(=O)NCc2csc(-c3cccnc3)n2)cc1; 101
Cc1ccc(NC(=O)CN2CC(C)SC2=NC2CCCCC2)cc1 (configuration not stated); 112
CCOC(=O)CSc1nnc(-c2ccc(Cl)cc2Cl)o1; 116
CC(C)c1ccc(-c2nc(N3CCOCC3)[nH]c(=O)c2C#N)cc1; 114
COC(=O)c1c(C#N)c(N)nc2c1CCC2; 92.6
Cc1cc(=O)n(C)c(=O)n1CCCCCN1CCCC1; 102
O=C(OCC#CCSc1nc2ccccc2s1)c1ccco1; 100
O=C(Nc1ccc(Br)cc1F)c1sccc1-n1cccc1; 110

Task item: For the compound CC1=C(C(=O)OC2CCCCC2)C(c2cccnc2)n2ncnc2N1 (configuration not stated) , give its measured nuclei count value.
Reply: 34.7

Task item: For the compound `CCOC(=O)Nc1c(O)ccc2oc(C)c(-c3ccccc3)c12` , give its measured nuclei count value.
Reply: 106

Task item: For the compound CCCCC(CC)CNC(=O)C1CCCN(S(=O)(=O)c2cnc[nH]2)C1 (configuration not stated) , give its measured nuclei count value.
Reply: 104

Task item: For the compound `Cc1ccc(N2CCN(C(=O)c3ccccc3)CC2)c(C)c1` , give its measured nuclei count value.
Reply: 106

---

Catalogue of slope values
# ASSAYED_SYSTEM: Alpha-2C adrenergic receptor (Homo sapiens) (UniProt P18825)
# Sequence (P18825 whole entry, looked up): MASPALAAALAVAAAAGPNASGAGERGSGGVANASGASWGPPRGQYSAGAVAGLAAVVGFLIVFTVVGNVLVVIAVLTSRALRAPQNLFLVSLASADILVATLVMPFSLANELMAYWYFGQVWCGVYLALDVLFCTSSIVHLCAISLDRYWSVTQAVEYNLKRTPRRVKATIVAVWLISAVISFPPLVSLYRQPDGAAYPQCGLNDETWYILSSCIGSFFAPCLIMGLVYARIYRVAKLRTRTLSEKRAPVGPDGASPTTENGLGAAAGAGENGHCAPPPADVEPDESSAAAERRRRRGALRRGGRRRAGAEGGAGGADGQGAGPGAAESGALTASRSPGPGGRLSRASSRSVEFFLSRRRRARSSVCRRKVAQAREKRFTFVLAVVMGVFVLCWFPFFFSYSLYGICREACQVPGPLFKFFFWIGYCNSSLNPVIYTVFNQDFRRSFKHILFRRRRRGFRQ
# PROTOCOL_DESCRIPTION: compounds altering alpha2C-coupled GIRK flux – cell-based, HEK293 alpha2C/GIRK1/2, thallium flux, primary screen (AID 624);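 further: slope of fluorescence ratio to pre-addition baseline per second over 15 to 24 s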
# CONDITION_DETAILS: thallium flux BTC fluorescence, at 10 µM, actives lie on both sides
// no unit string in output, number only

Check out these entries, answers already filled in.
COc1ccccc1OCCSc1nc2ccccc2c(=O)[nH]1; 0.00628
O=C(NC1=NCCS1)NC12CC3CC(CC(C3)C1)C2; 0.00362

Please turn your attention to the following entry.
Task item: For the compound `COc1ccc(OCCSc2nc3ccccc3n2CC(=O)O)cc1` , give its measured slope value.
Reply: 0.00591
